- MEASURED TARGET: sigma receptor
- EXPERIMENT DESCRIPTION: [3H]DTG displacement radioligand binding assay, guinea pig brain membranes
- CONDITION PARAMETERS: list of especially preferred compounds; read-out: IC50 (high binding to the sigma receptor)
Structures can show the parent of a compound that is named as a salt.

{"COMPOUND": "N=C(Nc1ccccc1I)Nc1cccc2ccccc12", "MEASURE UNIT": "µM", "IC50": 0.0401}
{"COMPOUND": "CCc1cccc(N2CCN(c3cccc(CC)c3)C2=N)c1", "MEASURE UNIT": "µM", "IC50": 0.07}
{"COMPOUND": "Cc1cccc(C)c1NC(=N)Nc1c(C)cccc1C", "MEASURE UNIT": "µM", "IC50": 0.09}
{"COMPOUND": "Cc1ccccc1N(C)C(=N)NC12CC3CC(CC(C3)C1)C2", "MEASURE UNIT": "µM", "IC50": 0.0226}
{"COMPOUND": "CC1(C)[C@H]2CC[C@]1(C)[C@@H](NC(=N)Nc1ccccc1I)C2 (relative stereo)", "MEASURE UNIT": "µM", "IC50": 0.018}
{"COMPOUND": "N=C(Nc1ccc(F)cc1F)NC12CC3CC(CC(C3)C1)C2", "MEASURE UNIT": "µM", "IC50": 0.00892}
{"COMPOUND": "N=C(NC1CCCCC1)NC12CC3CC(CC(C3)C1)C2 [AdChG, HCl]", "MEASURE UNIT": "µM", "IC50": 0.0125}
{"COMPOUND": "N=C(NC1CC2CCC1C2)NC1CC2CCC1C2 (stereo not drawn) [N,N'-di-(exo-2-norbornyl)guanidine]", "MEASURE UNIT": "µM", "IC50": 0.022}
{"COMPOUND": "CC12CC3CC(C)(C1)CC(NC(=N)Nc1ccccc1I)(C3)C2", "MEASURE UNIT": "µM", "IC50": 0.016}
{"COMPOUND": "N=C(NC1CC2CCC1C2)NC1CC2CCC1C2 (racemic) [N,N'-di-((±)-endo-2-norbornyl)guanidine]", "MEASURE UNIT": "µM", "IC50": 0.016}
{"COMPOUND": "Cc1ccccc1NC(=N)NC1CCCCC1", "MEASURE UNIT": "µM", "IC50": 0.013}
{"COMPOUND": "Cc1ccccc1NC(=N)Nc1ccc(N=[N+]=[N-])cc1C", "MEASURE UNIT": "µM", "IC50": 0.02}
{"COMPOUND": "N=C(NCc1ccccc1)NCc1ccccc1", "MEASURE UNIT": "µM", "IC50": 0.09}
{"COMPOUND": "CC(C)c1ccccc1NC(=N)NC12CC3CC(CC(C3)C1)C2", "MEASURE UNIT": "µM", "IC50": 0.024}
{"COMPOUND": "Cc1cc(Br)ccc1NC(=N)Nc1ccc(Br)cc1C", "MEASURE UNIT": "µM", "IC50": 0.037}
{"COMPOUND": "Cc1ccccc1NC(=N)Nc1ccccc1I", "MEASURE UNIT": "µM", "IC50": 0.021}
{"COMPOUND": "N=C(NC12CC3CC(CC(C3)C1)C2)NC12CC3CC(CC(C3)C1)C2", "MEASURE UNIT": "µM", "IC50": 0.0165}
{"COMPOUND": "Cc1cc(Br)ccc1NC(=N)NC12CC3CC(CC(C3)C1)C2", "MEASURE UNIT": "µM", "IC50": 0.0027}

Hello, the source for this data is patent US5574070A, in case you need it.
